Molecular target: dopamine transporter (Rattus norvegicus, UniProt P23977)
Construct: was used to label dopamine transporters in rat striatal membranes; from tissue; host or cells: rat striatal membranes
Sequence (P23977 whole entry): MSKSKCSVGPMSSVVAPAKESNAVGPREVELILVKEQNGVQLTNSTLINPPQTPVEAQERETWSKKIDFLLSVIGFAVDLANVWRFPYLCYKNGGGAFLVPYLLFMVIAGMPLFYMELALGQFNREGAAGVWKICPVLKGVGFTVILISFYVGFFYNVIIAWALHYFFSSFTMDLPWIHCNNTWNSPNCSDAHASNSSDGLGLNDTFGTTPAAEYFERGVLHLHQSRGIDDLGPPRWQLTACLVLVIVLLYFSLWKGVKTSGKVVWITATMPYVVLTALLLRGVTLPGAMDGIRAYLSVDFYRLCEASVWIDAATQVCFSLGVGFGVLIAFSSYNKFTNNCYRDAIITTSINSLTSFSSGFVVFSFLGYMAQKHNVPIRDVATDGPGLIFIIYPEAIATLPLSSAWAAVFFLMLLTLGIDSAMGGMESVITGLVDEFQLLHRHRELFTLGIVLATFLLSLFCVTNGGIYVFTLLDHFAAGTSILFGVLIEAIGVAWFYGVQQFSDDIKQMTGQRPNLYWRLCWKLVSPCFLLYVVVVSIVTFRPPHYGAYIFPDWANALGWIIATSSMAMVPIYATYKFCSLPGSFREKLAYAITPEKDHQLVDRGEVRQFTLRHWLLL
Assay: Displacement of [^125 I]RTI-55 binding to dopamine transporters in rat striatal membranes
Settings: 5-HT K1 / DA K1; higher numbers demonstrate relatively greater dopamine transporter potency
Parameter class (string): assigned from measured binding ratio. Ranges: lower level (below 2), middle level (2 to below 10), upper level (10 or more)

[ask] # classify by binding ratio band: CCC(=O)[C@H]1[C@@H](c2ccc(-c3ccccc3)cc2)C[C@@H]2CC[C@H]1N2C (relative stereo)
[reply] lower level

[ask] Cool, now CCC(=O)C1C(c2ccc3ccccc3c2)CC2CCC1N2C (single isomer, unassigned) [WF-23(2)]
[reply] middle level

[ask] Cool, now CC(=O)[C@H]1[C@@H](c2ccc(C)cc2)C[C@@H]2CC[C@H]1N2C (relative stereo)
[reply] upper level

Others:
[ask] # classify by binding ratio band: CCc1ccc([C@H]2C[C@@H]3CC[C@H]([C@H]2C(C)=O)N3C)cc1 (relative stereo)
[reply] lower level

[ask] Cool, now CCC(=O)[C@H]1[C@@H](c2ccc(C(C)(C)C)cc2)C[C@@H]2CC[C@H]1N2C (relative stereo)
[reply] lower level

[ask] Cool, now CCC(=O)[C@H]1[C@@H](c2cccc3ccccc23)C[C@@H]2CC[C@H]1N2C (relative stereo)
[reply] middle level
